Measured values drawn from the supplement of paper PMC10307832 for this set.

- Test system: NCI-H596
- method_description: relative viability (nuclei count vs DMSO), 5 days (fraction); higher = more cells survive
- condition_info: first compound 2.53 µM
relative viability overview
# respond with the number and nothing more

compound	relative viability
C=C1C(=O)O[C@@H](CCCCCCCC)[C@@H]1C(=O)O [C-75] + CC(=O)Nc1cccc(-n2c(=O)n(C3CC3)c(=O)c3c(Nc4ccc(I)cc4F)n(C)c(=O)c(C)c32)c1 [Trametinib] (partner 0.02 µM)	0.722
Oc1nc(-c2ccc(C(F)(F)F)cc2)nc2c1CSCC2 [XAV939] + Cc1cc(Nc2cc(N3CCN(C)CC3)nc(Sc3ccc(NC(=O)C4CC4)cc3)n2)n[nH]1 [Tozasertib] (partner 0.1 µM)	0.939

Then this compound:
Inquiry: Request the reported relative viability associated with C=C1C(=O)O[C@@H](CCCCCCCC)[C@@H]1C(=O)O [C-75] + CS(=O)(=O)CCNCc1ccc(-c2ccc3ncnc(Nc4ccc(OCc5cccc(F)c5)c(Cl)c4)c3c2)o1 [Lapatinib] (partner 2 µM)
Reply text: 0.87
